Tested on: Enterococcus faecalis
experiment summary: Antibacterial activity against vancomycin-sensitive Enterococcus faecalis ATCC 19433 by CLSI broth microdilution method
Assay type: functional
API: label(entry) gives yes (1) if the entry's MIC is strictly smaller than 2 µg/mL; on equality or larger values it gives no (0).

[
  {
    "molecule smiles": "COc1cc2c[n+]3ccc4c(OC)c(OC)ccc4c3cc2c(-c2ccc(-c3ccccc3)cc2)c1OC.[Cl-]",
    "category label": "no (0)"
  },
  {
    "molecule smiles": "COc1cc2cc3c4cc(-c5ccccc5)c(OC)cc4cc[n+]3cc2cc1OC.[Cl-]",
    "category label": "no (0)"
  },
  {
    "molecule smiles": "COc1cc2cc3c4cc(-c5ccc(-c6ccccc6)cc5)c(OC)c(OC)c4cc[n+]3cc2cc1OC.[Cl-]",
    "category label": "no (0)"
  },
  {
    "molecule smiles": "CC(=O)OS(=O)(=O)[O-].COc1cc2c(C)[n+]3ccc4c(OC)c(OC)ccc4c3cc2c(-c2ccc(-c3ccccc3)cc2)c1OC",
    "category label": "no (0)"
  },
  {
    "molecule smiles": "CN[C@H](CC(C)C)C(=O)N[C@H]1C(=O)N[C@@H](CC(N)=O)C(=O)N[C@H]2C(=O)N[C@H]3C(=O)N[C@H](C(=O)N[C@H](C(=O)O)c4cc(O)cc(O)c4-c4cc3ccc4O)[C@H](O)c3ccc(c(Cl)c3)Oc3cc2cc(c3O[C@@H]2O[C@H](CO)[C@@H](O)[C@H](O)[C@H]2O[C@H]2C[C@](C)(N)[C@H](O)[C@H](C)O2)Oc2ccc(cc2Cl)[C@H]1O",
    "category label": "yes (1)"
  }
]
